Several reports have described Ki for D(3) dopamine receptor (Homo sapiens, UniProt P35462); a selection of those results is presented here.
endpoint: Ki (nM)

Worked examples follow.
INSERT INTO assay_data (compound, assayed_target, val) VALUES
  ('Cc1cc(NC(=O)CN2CCC3(CCCN3Cc3ccc(F)c(F)c3)C2)ccc1F (stereo not drawn)', 'D(3) dopamine receptor (Homo sapiens, UniProt P35462)', 512),
  ('COc1ccccc1N1CCN(CCCCNC(=O)c2cc3ccccc3cn2)CC1', 'D(3) dopamine receptor (Homo sapiens, UniProt P35462)', 1.48),
  ('CN(CCCC12CCC(c3ccccc31)c1ccccc12)Cc1ccc(OCCCN2CCCCC2)cc1', 'D(3) dopamine receptor (Homo sapiens, UniProt P35462)', 149),
  ('Clc1ccc2c(c1)N=C(N1CCN(Cc3ccc(OCCCN4CCCCC4)cc3)CC1)c1ccccc1N2', 'D(3) dopamine receptor (Homo sapiens, UniProt P35462)', 223),
  ('CNc1ncc2c(n1)CC(CN1CCC(c3noc4cc(F)ccc34)CC1)CC2=O (stereo not drawn)', 'D(3) dopamine receptor (Homo sapiens, UniProt P35462)', 200),
  ('COc1ccccc1N1CCN(CCCCNC(=O)c2ccc(Cl)cc2)CC1', 'D(3) dopamine receptor (Homo sapiens, UniProt P35462)', 0.5),
  ('O=C(NCCCCN1CCN(c2cc3ccc2CCc2ccc(cc2)CC3)CC1)c1cc2ccc1CCc1ccc(cc1)CC2', 'D(3) dopamine receptor (Homo sapiens, UniProt P35462)', 4),
  ('COc1ccccc1N1CCN(Cc2ccccc2CNC(=O)c2ccc3ccccc3c2)CC1', 'D(3) dopamine receptor (Homo sapiens, UniProt P35462)', 750),
  ('OC[C@H]1[C@H]2CN(Cc3ccccc3)[C@H](c3ccccc3)[C@H]2[C@@H]1N1CCCCC1', 'D(3) dopamine receptor (Homo sapiens, UniProt P35462)', 5300),
  ('COc1c(C(=O)NCCN2CCN(c3ccccc3Cl)CC2)cc(Br)c2ccccc12', 'D(3) dopamine receptor (Homo sapiens, UniProt P35462)', 39.8);

a = FCCOc1ccc(N2CCN(Cc3cnn4ccccc34)CC2)cc1
b = O=C(NCCCCN1CCN(c2ccccn2)CC1)c1cc2ccccc2cn1
c = CC(C)(C)c1nc(N2CCN(CCCCn3ccc(C4CC4)nc3=O)CC2)cc(C(F)(F)F)n1
d = FC(CCNCc1ccc2c(c1)Cc1ccccc1-2)CN1CCN(c2cccc(Cl)c2Cl)CC1 (stereo not drawn)
Order the records, beginning with the lowest Ki and ending with the highest. Form field (ranking): labels in requested order.
c, b, d, a
(c: 3.7 nM, b: 41 nM, d: 467 nM, a: 8700 nM)

I = Brc1ccc(CNCCN2CCN(Cc3cc4ccccc4[nH]3)CC2)cc1
II = CCC1(CC)CC(OCCCNCc2cccc(C(F)(F)F)n2)(c2ccccn2)CCO1 (stereo not drawn)
III = O=C(NCCCCN1CCO[C@@H]2c3ccccc3OC[C@H]21)c1cccc(Cl)c1 (racemic)
IV = CCCN(CCN1CCN(c2cccc(Cl)c2Cl)CC1)C1CCc2c(O)cccc2C1 (racemic)
With regard to Ki, arrange the entries in ascending order, please. Labels, ranked as asked.
IV, III, I, II
(IV: 0.45 nM, III: 23.6 nM, I: 1800 nM, II: 2700 nM)

a = COc1ccc2c(c1)[C@H]1OCCN(CCCCNC(=O)c3ccccc3)[C@@H]1CO2 (racemic)
b = O=C(NCCCCN1CC[C@@H]2c3ccccc3CC[C@@H]21)c1ccc(-c2ccccc2)cc1
Hi there, can you help? I need to know whether a or b has lower measured Ki. Could you answer with the label of the item you picked?
a
(a: 13.8 nM, b: 50.1 nM)
